# ASSAY EXPLANATION: Cytotoxicity against human MT4 cells after 5 days by MTT assay
# Type: cell-based
# SETUP CONDITIONS: read-out: TD50
Task for the reader: assign each of the following compounds its reported CC50 at 120 h.
Give bare numbers, in µM.

Give CC50 at 120 h for each of the items listed below.
1. Cc1cccc(C)c1CNC(=O)[C@H]1N(C(=O)[C@@H](O)[C@H](Cc2ccccc2)NC(=O)[C@@H](NC(=O)COc2cccc(N(C)C)c2)[C@H]2CCOC2)CSC1(C)C
2. Cc1cccc(C)c1CNC(=O)[C@H]1N(C(=O)[C@@H](O)[C@H](Cc2ccccc2)NC(=O)[C@@H](NC(=O)c2cc3ccccc3o2)[C@H]2CCOC2)CSC1(C)C
3. Cc1cccc(C)c1CNC(=O)[C@H]1N(C(=O)[C@@H](O)[C@H](Cc2ccccc2)NC(=O)[C@@H](NC(=O)COc2cccc(Nc3ccccc3)c2)[C@H]2CCOC2)CSC1(C)C

## Result
1: 60; 2: 38; 3: 39

###

Task for the reader: assign each of the following compounds its reported CC50 at 120 h.
# ASSAY EXPLANATION: Cytotoxicity against human MT4 cells after 5 days by MTT assay
# Format: cell-based
# SETUP CONDITIONS: read-out: TD50

Study these solved cases before continuing.
| ITEM SMILES | CC50 at 120 h |
| --- | --- |
| COc1cccc2cc(C(=O)N[C@H](C(=O)N[C@@H](Cc3ccccc3)[C@H](O)C(=O)N3CSC(C)(C)[C@H]3C(=O)NCc3c(C)cccc3C)[C@H]3CCOC3)oc12 | 11 µM |
| Cc1ccccc1CNC(=O)[C@H]1N(C(=O)[C@@H](O)[C@H](Cc2ccccc2)NC(=O)[C@@H](NC(=O)c2cnc3ccccc3n2)[C@H]2CCOC2)CSC1(C)C | 10 µM |
| Cc1cccc(C)c1OCC(=O)N[C@@H](Cc1ccccc1)[C@@H](O)C[C@H](Cc1ccccc1)NC(=O)[C@H](C(C)C)N1CCCNC1=O | > 10 µM |

Then this compound:
## Task Quick one: CC50 at 120 h of Cc1ccccc1CNC(=O)[C@H]1N(C(=O)[C@@H](O)[C@H](Cc2ccccc2)NC(=O)c2cccc(O)c2C)CSC1(C)C ?
## Result 23 µM

###

# ASSAYED SYSTEM: Protease (Human immunodeficiency virus 1)
# ASSAY EXPLANATION: Inhibition of recombinant HIV1 protease at 1 nM using H-Lys-Ala-Arg-Val-Tyr-Phe(p-NO2)-Glu-Ala-Nle-NH2 as substrate preincubated for 5 mins followed by substrate addition measured after 3 hrs by fluorescence-based assay
MEASURE: inhibition

| ITEM SMILES | RECORDED MEASUREMENT |
| --- | --- |
| Cc1ccccc1CNC(=O)[C@H]1N(C(=O)[C@@H](O)[C@H](Cc2ccccc2)NC(=O)[C@@H](NC(=O)c2cnc3ccccc3n2)[C@@H]2CCOC2)CSC1(C)C | 86% |

Give inhibition for each of the items listed below.
1. COc1cccc2cc(C(=O)N[C@H](C(=O)N[C@@H](Cc3ccccc3)[C@H](O)C(=O)N3CSC(C)(C)[C@H]3C(=O)NCc3c(C)cccc3C)C(C)C)oc12
2. Cc1cccc(C)c1CNC(=O)[C@H]1N(C(=O)[C@@H](O)[C@H](Cc2ccccc2)NC(=O)[C@@H](NC(=O)c2cc(=O)c3ccccc3o2)[C@H]2CCOC2)CSC1(C)C

## Result
["95%", "98%"]

###

# System: Human immunodeficiency virus 1
# ASSAY EXPLANATION: Antiviral activity against wild-type HIV1 pNL4-3 infected in human MT4 cells assessed as inhibition of virus-induced cytopathic effect after 5 days in absence of human serum by MTT assay
# Type: functional, organism-based
# SETUP CONDITIONS: Human immunodeficiency virus 1, pNL4-3, MT4, 120 h
MEASURE: pEC50
Give bare numbers, as −log10 of the molar value.

Give pEC50 for each of the items listed below.
1. CN(C)c1cccc(OCC(=O)N[C@H](C(=O)N[C@@H](Cc2ccccc2)[C@H](O)C(=O)N2CSC(C)(C)[C@H]2C(=O)NC/C=C\CO)[C@H]2CCOC2)c1
2. Cc1ccccc1CNC(=O)[C@H]1N(C(=O)[C@@H](O)[C@H](Cc2ccccc2)NC(=O)[C@@H](NC(=O)c2cnc3ccccc3n2)[C@H]2CCOC2)CSC1(C)C
3. Cc1ccccc1CNC(=O)[C@H]1N(C(=O)[C@@H](O)[C@H](Cc2ccccc2)NC(=O)c2cccc(O)c2C)CSC1(C)C
4. Cc1ccccc1CNC(=O)[C@H]1N(C(=O)[C@@H](O)[C@H](Cc2ccccc2)NC(=O)[C@@H](NC(=O)c2cnc3ccccc3n2)[C@@H]2CCOC2)CSC1(C)C

## Result
1. 6.25
2. 8.40
3. 7.22
4. 7.92

Give pEC50 for each of the items listed below.
1. CN(C)c1cccc(OCC(=O)N[C@H](C(=O)N[C@@H](Cc2ccccc2)[C@H](O)C(=O)N2CSC(C)(C)[C@H]2C(=O)NC2CCCC2)[C@H]2CCOC2)c1
2. C=C(C)CNC(=O)[C@H]1N(C(=O)[C@@H](O)[C@H](Cc2ccccc2)NC(=O)[C@@H](NC(=O)COc2cccc(N(C)C)c2)[C@H]2CCOC2)CSC1(C)C

## Result
1. 8.00
2. 8.15

Give pEC50 for each of the items listed below.
1. CN(C)c1cccc(OCC(=O)N[C@H](C(=O)N[C@@H](Cc2ccccc2)[C@H](O)C(=O)N2CSC(C)(C)[C@H]2C(=O)N[C@H]2CCc3ccccc32)[C@H]2CCOC2)c1
2. Cc1cccc(C)c1CNC(=O)[C@H]1N(C(=O)[C@@H](O)[C@H](Cc2ccccc2)NC(=O)[C@@H](NC(=O)COc2cccc3cnccc23)[C@H]2CCOC2)CSC1(C)C

## Result
1: 8.30; 2: 7.22

###

# Test system: Human immunodeficiency virus 1
# ASSAY EXPLANATION: Antiviral activity against wild-type HIV1 pNL4-3 infected in human MT4 cells assessed as inhibition of virus-induced cytopathic effect after 5 days in presence of 50 % of human serum by MTT assay
# Format: functional, organism-based
# SETUP CONDITIONS: Human immunodeficiency virus 1, pNL4-3, MT4, 120 h
Task for the reader: assign each of the following compounds its reported pEC50.
One number for each entry, as −log10 of the molar value.

Study these solved cases before continuing.
| ITEM SMILES | RECORDED MEASUREMENT |
| --- | --- |
| Cc1cccc(C)c1CNC(=O)[C@H]1N(C(=O)[C@@H](O)[C@H](Cc2ccccc2)NC(=O)[C@@H](NC(=O)c2cc(=O)c3ccccc3o2)[C@H]2CCOC2)CSC1(C)C | 6.94 |
| CN(C)c1cccc(OCC(=O)N[C@H](C(=O)N[C@@H](Cc2ccccc2)[C@H](O)C(=O)N2CSC(C)(C)[C@H]2C(=O)N[C@H]2c3ccccc3C[C@H]2O)[C@H]2CCOC2)c1 | 7.10 |
| CN(C)c1cccc(OCC(=O)N[C@H](C(=O)N[C@@H](Cc2ccccc2)[C@H](O)C(=O)N2CSC(C)(C)[C@H]2C(=O)NC/C=C\CO)[C@H]2CCOC2)c1 | 5.69 |
| Cc1ccccc1CNC(=O)[C@H]1N(C(=O)[C@@H](O)[C@H](Cc2ccccc2)NC(=O)[C@@H](NC(=O)c2cnc3ccccc3n2)[C@@H]2CCOC2)CSC1(C)C | 6.88 |
| Cc1cccc(C)c1CNC(=O)[C@H]1N(C(=O)[C@@H](O)[C@H](Cc2ccccc2)NC(=O)[C@@H](NC(=O)COc2cccc(N(C)C)c2)[C@H]2CCOC2)CSC1(C)C | 7.82 |

Give pEC50 for each of the items listed below.
1. COc1cccc2cc(C(=O)N[C@H](C(=O)N[C@@H](Cc3ccccc3)[C@H](O)C(=O)N3CSC(C)(C)[C@H]3C(=O)NCc3c(C)cccc3C)[C@H]3CCOC3)oc12
2. Cc1cccc(C)c1CNC(=O)[C@H]1N(C(=O)[C@@H](O)[C@H](Cc2ccccc2)NC(=O)[C@@H](NC(=O)c2cc3ccccc3o2)[C@H]2CCOC2)CSC1(C)C
3. Cc1cccc(C)c1CNC(=O)[C@H]1N(C(=O)[C@@H](O)[C@H](Cc2ccccc2)NC(=O)[C@@H](NC(=O)COc2cccc3cnccc23)[C@H]2CCOC2)CSC1(C)C

## Result
1. 7.10
2. 7.05
3. 6.84

###

# ASSAYED SYSTEM: Protease (Human immunodeficiency virus 1) (UniProt Q9YQ12)
# ASSAY EXPLANATION: Inhibition of recombinant HIV1 protease at 1 nM using H-Lys-Ala-Arg-Val-Tyr-Phe(p-NO2)-Glu-Ala-Nle-NH2 as substrate preincubated for 5 mins followed by substrate addition measured after 3 hrs by fluorescence-based assay
MEASURE: inhibition (%)
Give bare numbers, in %.

| ITEM SMILES | inhibition (%) |
| --- | --- |
| Cc1cccc(C)c1CNC(=O)[C@H]1N(C(=O)[C@@H](O)[C@H](Cc2ccccc2)NC(=O)[C@@H](NC(=O)COc2cccc(N(C)C)c2)[C@H]2CCOC2)CSC1(C)C | 97 |
| Cc1cccc(C)c1CNC(=O)[C@H]1N(C(=O)[C@@H](O)[C@H](Cc2ccccc2)NC(=O)[C@@H](NC(=O)COc2cccc3cnccc23)[C@H]2CCOC2)CSC1(C)C | 98 |
| Cc1cccc(C)c1CNC(=O)[C@H]1N(C(=O)[C@@H](O)[C@H](Cc2ccccc2)NC(=O)[C@@H](NC(=O)c2cc3ccccc3o2)[C@H]2CCOC2)CSC1(C)C | 97 |
| CN(C)c1cccc(OCC(=O)N[C@H](C(=O)N[C@@H](Cc2ccccc2)[C@H](O)C(=O)N2CSC(C)(C)[C@H]2C(=O)NC2CCCC2)[C@H]2CCOC2)c1 | 93 |
| Cc1cccc(C)c1CNC(=O)[C@H]1N(C(=O)[C@@H](O)[C@H](Cc2ccccc2)NC(=O)[C@@H](NC(=O)c2cc3ccccc3o2)C(C)C)CSC1(C)C | 93 |
| CSC[C@H](NC(=O)COc1cccc2cnccc12)C(=O)N[C@@H](Cc1ccccc1)[C@H](O)C(=O)N1CSC[C@H]1C(=O)NC(C)(C)C | 14 |
| Cc1ccccc1CNC(=O)[C@H]1N(C(=O)[C@@H](O)[C@H](Cc2ccccc2)NC(=O)[C@@H](NC(=O)COc2cccc3cnccc23)[C@H]2CCOC2)CSC1(C)C | 97 |
| CN(C)c1cccc(OCC(=O)N[C@H](C(=O)N[C@@H](Cc2ccccc2)[C@H](O)C(=O)N2CSC(C)(C)[C@H]2C(=O)N[C@H]2CCc3ccccc32)[C@H]2CCOC2)c1 | 97 |
| Cc1ccccc1CNC(=O)[C@H]1N(C(=O)[C@@H](O)[C@H](Cc2ccccc2)NC(=O)[C@@H](NC(=O)c2cnc3ccccc3n2)[C@H]2CCOC2)CSC1(C)C | 97 |
| COc1cccc2cc(C(=O)N[C@H](C(=O)N[C@@H](Cc3ccccc3)[C@H](O)C(=O)N3CSC(C)(C)[C@H]3C(=O)NCc3c(C)cccc3C)[C@H]3CCOC3)oc12 | 97 |

## Task Kindly state the measured inhibition obtained for Cc1ccccc1CNC(=O)[C@H]1N(C(=O)[C@@H](O)[C@H](Cc2ccccc2)NC(=O)[C@@H](NC(=O)c2ccc3ccccc3n2)[C@H]2CCOC2)CSC1(C)C with Protease (Human immunodeficiency virus 1) (UniProt Q9YQ12).
## Result 96
